Where these numbers come from: patent US10683287B2

System: Cellular Release of Amyloid Peptide 1-40
Assay: Test 4: Inhibition of Cellular Release of Amyloid Peptide 1-40
Type: cell-based, Chinese hamster
Conditions: Cricetulus griseus, 24 h; read-out: Amyloid-β1-40 release IC50

Compound	IC50 (nM)
NC1=NC(CF)(c2cccc(NC(=O)c3ccc(Br)cn3)n2)COC1 (stereo not shown) [Example 4]	98
C[C@]1(c2cccc(NC(=O)c3ccc(C#N)cn3)n2)CO[C@@](C)(C(F)(F)F)C(N)=N1 [Example 9]	1900
C[C@@]1(c2nc(NC(=O)c3ncc(OCCCF)nc3N)ccc2F)CO[C@@](C)(C(F)(F)F)C(N)=N1 [Example 42]	72
C[C@@]1(c2cccc(NC(=O)c3ccc(Br)cn3)n2)COCC(N)=N1 [Example 1]	41

====

Tested on: Cellular Release of Amyloid Peptide 1-40
Assay: Test 4: Inhibition of Cellular Release of Amyloid Peptide 1-40
Format: cell-based, Chinese hamster
Details: Cricetulus griseus, 24 h; read-out: Amyloid-β1-40 release IC50
Reported Endpoint: IC50

Compound	Tgt	Experimental Value
C[C@@]1(c2cc(NC(=O)c3ncc(C#N)cc3Cl)ncc2F)CO[C@@](C)(C(F)(F)F)C(N)=N1 [Example 35]	Cellular Release of Amyloid Peptide 1-40	0.14 µM
[2H]c1nc(C(=O)Nc2cc(C3(CF)COCC(N)=N3)ccn2)c(C([2H])([2H])[2H])c([2H])c1Cl (stereo not drawn) [Example 13, Acetate]	Cellular Release of Amyloid Peptide 1-40	0.55 µM
N#Cc1cnc(C(=O)Nc2ccc(F)c([C@]3(C(F)F)COCC(N)=N3)n2)c(Cl)c1 [Example 40]	Cellular Release of Amyloid Peptide 1-40	0.012 µM
